# System: Klebsiella aerogenes DSM 30053
# assay_info: fold change of Putrescine concentration vs plate DMSO controls (fold change (ratio)); higher = more amine produced, active = hit call of the paper (significant change in both replicates, either direction)
# settings: incubation time: 27 h, anaerobic, 37 °C
endpoint: fold change of Putrescine concentration
# respond with the number and nothing more

Name the reported fold change of Putrescine concentration value associated with the compound CC(=O)c1ccc(S(=O)(=O)NC(=O)NC2CCCCC2)cc1 [Acetohexamide] (20 µM)
1

Name the reported fold change of Putrescine concentration value associated with the compound COCC1=C(C(=O)OC(C)OC(=O)OC(C)C)N2C(=O)[C@@H](NC(=O)/C(=N\OC)c3csc(N)n3)[C@H]2SC1 (some centres undefined) [Cefpodoxime proxetil] (20 µM)
1.03

Name the reported fold change of Putrescine concentration value associated with the compound CC(C)c1c(C(=O)Nc2ccccc2)c(-c2ccccc2)c(-c2ccc(F)cc2)n1CC[C@@H](O)C[C@@H](O)CC(=O)O [Atorvastatin] (20 µM)
1.02

Name the reported fold change of Putrescine concentration value associated with the compound CC1=C(C(=O)O)N2C(=O)[C@@H](NC(=O)[C@H](N)C3=CCC=CC3)[C@H]2SC1 [Cephradine monohydrate] (20 µM)
1

Name the reported fold change of Putrescine concentration value associated with the compound COc1ccccc1OCCNCC(O)COc1cccc2[nH]c3ccccc3c12 (centres undefined) [Carvedilol] (20 µM)
0.98

Name the reported fold change of Putrescine concentration value associated with the compound CCC(C)(C)C(=O)O[C@H]1C[C@@H](C)C=C2C=C[C@H](C)[C@H](CC[C@@H]3C[C@@H](O)CC(=O)O3)[C@H]21 [Simvastatin] (20 µM)
1.03

Name the reported fold change of Putrescine concentration value associated with the compound CC(=O)O[C@]1(C(C)=O)CC[C@H]2[C@@H]3C=C(C)C4=CC(=O)CC[C@@H]4[C@H]3CC[C@@]21C [Nomegestrol acetate] (20 µM)
1

Name the reported fold change of Putrescine concentration value associated with the compound C[N+](C)(C)CCCCCC[N+](C)(C)C [Hexamethonium dibromide dihydrate] (20 µM)
0.982

Name the reported fold change of Putrescine concentration value associated with the compound C=C1C[C@H]2[C@@H]3C=C(C)C4=CC(=O)CC[C@]4(C)[C@H]3CC[C@]2(C)[C@@]1(OC(C)=O)C(C)=O [Melengestrol acetate] (20 µM)
1

The values you see were collected from the supplement of paper PMC12494721.
